Target: d-enCas12a (Acidaminococcus sp., UniProt U2UMQ6 1-1307, E174R;S542R;K548R;D908A;E993A;D1235A)
Assay: Spec-seq (native PAGE EMSA with sequencing of bound and unbound); 25 mM Tris-HCl pH 7.4, 150 mM KCl, 5 mM MgCl2, 10% glycerol, 1 mM DTT, 40 ng/uL salmon sperm DNA; 400 nM Cas12a, 480 nM crRNA, 50 nM library, 37 C 1 h; native PAGE at room temperature; high values mean tight binding;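 also: relative affinity from the bound to unbound sequence frequency ratio in Spec-seq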
Conditions: protein: recombinant
reported_property: binding signal (lnKA)

binder	reported_property	measurement_unit	quantitative_result
TGCA (dsDNA) DNA 1: GCTATCTAGTGCTCAGTACGCACTGTGCAAGGAAACTTCTGGCAGGACCAGGTCATGAGATCGGAAGAGCACACGTCTGAACTCCAGTCA DNA 2: TGACTGGAGTTCAGACGTGTGCTCTTCCGATCTCATGACCTGGTCCTGCCAGAAGTTTCCTTGCACAGTGCGTACTGAGCACTAGATAGC RNA: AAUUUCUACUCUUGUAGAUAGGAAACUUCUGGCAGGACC	binding signal	lnKA	-2
ACTC (dsDNA) DNA 1: GCTATCTAGTGCTCAGTACGCACTGACTCAGGAAACTTCTGGCAGGACCAGGTCATGAGATCGGAAGAGCACACGTCTGAACTCCAGTCA DNA 2: TGACTGGAGTTCAGACGTGTGCTCTTCCGATCTCATGACCTGGTCCTGCCAGAAGTTTCCTGAGTCAGTGCGTACTGAGCACTAGATAGC RNA: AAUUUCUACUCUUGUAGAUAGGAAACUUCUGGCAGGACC	binding signal	lnKA	-4.8
